target: EGFR TMLRCS (Homo sapiens, UniProt P00533, C797S/L858R/T790M); assay: HTRF Phospho EGFR TMLRCS Assay (Cellular); settings: BaF3-TMLRCS cell line, 4 hours incubation, Phospho-EGFR HTRF readout
Sequence (P00533 25-1210 T790M/C797S/L858R): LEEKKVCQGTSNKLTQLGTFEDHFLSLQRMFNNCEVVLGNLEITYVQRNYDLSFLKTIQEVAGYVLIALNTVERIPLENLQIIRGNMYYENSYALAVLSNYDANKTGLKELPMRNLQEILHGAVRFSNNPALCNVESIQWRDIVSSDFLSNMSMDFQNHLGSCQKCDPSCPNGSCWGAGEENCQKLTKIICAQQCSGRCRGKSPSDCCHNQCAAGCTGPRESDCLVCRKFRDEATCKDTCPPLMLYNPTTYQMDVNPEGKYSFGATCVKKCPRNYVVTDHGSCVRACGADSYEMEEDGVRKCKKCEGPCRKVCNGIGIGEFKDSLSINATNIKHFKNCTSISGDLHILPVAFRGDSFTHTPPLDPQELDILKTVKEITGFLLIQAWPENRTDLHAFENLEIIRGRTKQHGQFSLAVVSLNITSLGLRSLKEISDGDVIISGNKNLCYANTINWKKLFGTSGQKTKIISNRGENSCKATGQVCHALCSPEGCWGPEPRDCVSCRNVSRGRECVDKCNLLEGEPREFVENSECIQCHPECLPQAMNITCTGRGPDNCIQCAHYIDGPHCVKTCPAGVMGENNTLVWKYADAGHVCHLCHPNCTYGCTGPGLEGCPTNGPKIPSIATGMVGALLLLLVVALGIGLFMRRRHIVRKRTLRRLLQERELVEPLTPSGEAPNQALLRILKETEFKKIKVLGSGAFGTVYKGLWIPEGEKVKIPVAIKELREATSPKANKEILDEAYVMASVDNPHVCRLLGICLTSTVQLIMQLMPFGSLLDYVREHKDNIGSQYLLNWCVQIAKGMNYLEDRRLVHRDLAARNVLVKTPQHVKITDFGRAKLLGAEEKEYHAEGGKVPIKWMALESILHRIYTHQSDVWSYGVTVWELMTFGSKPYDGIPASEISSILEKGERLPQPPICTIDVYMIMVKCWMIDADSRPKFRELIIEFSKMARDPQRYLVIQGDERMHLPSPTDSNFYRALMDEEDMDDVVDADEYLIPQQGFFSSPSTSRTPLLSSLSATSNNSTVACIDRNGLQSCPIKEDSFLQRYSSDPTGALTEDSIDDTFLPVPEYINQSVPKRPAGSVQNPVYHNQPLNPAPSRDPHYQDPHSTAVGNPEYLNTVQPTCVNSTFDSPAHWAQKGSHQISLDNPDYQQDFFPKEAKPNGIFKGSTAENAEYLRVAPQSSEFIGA
assay.endpoint: IC50 (nM)

CCN1CC[C@@H](c2ccc(-c3cc(C)c4cn(C(C(=O)Nc5nccs5)c5ncn6c5CCC6)nc4c3Cl)cc2)[C@H](F)C1 (single isomer, unassigned) | 9

P: O=C(Nc1nccs1)C(c1ncn2c1CCC2)n1cc2c(Cl)cc(-c3ccc(N4CCOCC4)cc3)c(Br)c2n1 (stereo not drawn)
Q: CC(CCO)N1CCC(Oc2ccc(-c3cc(Cl)c4cn(C(C(=O)Nc5nccs5)c5ncn6c5C[C@@H](F)C6)nc4c3Cl)cc2)CC1 (mixture of isomers)
R: CN(Cc1ccc(-c2cc(Cl)c3cn(C(C(=O)Nc4nccs4)c4ncn5c4C[C@@H](F)C5)nc3c2Cl)cc1)C1CCC(O)CC1 (mixture of isomers)
Prompt: Descending sort on IC50 required. Would you mind listing the labels in the order asked for?
Completion: P, Q, R
